experiment: NCI Yeast Anticancer Drug Screen. Data for the rad50 strain (AID 155);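 also: 0% = growth of vehicle-only cultures of the same strain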; conditions: S. cerevisiae rad50 strain growth inhibition, hits give high values; at 50.0 µM unless noted
Compounds without any hit were thinned out: in the full panel of roughly 79,000, 15% have a hit. The source made the active and inactive calls. Rule as the data show it: active = growth inhibition above about 70%; inactive = the rest.
Readout: growth inhibition

CCN(CC)c1ccc(/C=N/Nc2cc(C)nc3ccc(C4CCCCC4)cc23)cc1: 25.8% (inactive)

Query string: # growth inhibition lookup, item `Cc1cc(S(=O)(=O)Nc2n[nH]c(N)n2)c(S)cc1Cl`
Result string: 11.4% (inactive)

Query string: Could you tell me which growth inhibition is on file for `CC(C)C(=O)Nc1nc2nc[nH]c2c(=O)[nH]1` ?
Result string: 11.6% (inactive)

Query string: I'd like to know its growth inhibition. The compound in question is C=CCc1cn(C2CC(OC(=O)c3ccc(Cl)cc3)C(COC(=O)c3ccc(Cl)cc3)O2)c(=O)[nH]c1=O (centres undefined)
Result string: -8.85% (inactive)

Query string: // lookup growth inhibition for O=P(O)(O)OCC1OC(n2cnc3c(=S)nc[nH]c32)C(O)C1O (centres undefined)
Result string: -17.4% (inactive)

Query string: For the compound `Cn1c(=S)[nH]c2c(Cl)cc(Cl)cc2c1=O` , what growth inhibition is on record?
Result string: -40.4% (inactive)

Query string: Requested field: growth inhibition. Item: `CCCCN(CCCC)C(=N)c1ccccc1C`
Result string: 4.8% (inactive)

Query string: Need growth inhibition, item `O=c1cc(-c2ccccc2)[nH]c2c(F)ccc(F)c12`
Result string: -27.4% (inactive)

Query string: Which value of growth inhibition has been reported for `C=CCNC(=S)N/C=C(\C#N)C(N)=O` in the records?
Result string: -24.4% (inactive)

---

test: NCI Yeast Anticancer Drug Screen. Data for the cln2 rad14 strain (AID 165);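 also: 0% = growth equal to vehicle treated cultures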; conditions: S. cerevisiae cln2 rad14 strain, hits give high values; at 50.0 µM unless noted
Compounds without any hit were thinned out: in the full panel of roughly 79,000, 15% have a hit.
Measured growth inhibition accompanies every entry in the list below.
State the answer as a number, implicitly in %.

Example cases with answers are listed next.
O=C(c1ccccc1)C(C(Nc1ccccc1)c1ccccc1)N1CCOCC1 (centres undefined): -47.3
CN1C2=NC(=O)NC(=O)C23OC3c2ccccc21 (centres undefined) (tested in a mixture with another compound): 14.7
O=C(O)c1cc([N+](=O)[O-])cc([N+](=O)[O-])c1-c1ccccc1: -13.4
O=C(C(/C=N/C(=S)NC1C(=O)Nc2ccccc21)=C(/O)c1ccccc1)c1ccccc1 (centres undefined): 27.5

Query string: If you can, please state the reported growth inhibition value of `O=C(CCN1C(=O)c2ccccc2C1=O)Nc1c(I)cc(I)c(C(=O)O)c1I` .
Result string: -20.2

---

experiment: NCI Yeast Anticancer Drug Screen. Data for the cln2 rad14 strain (AID 165);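 also: 0% = growth equal to vehicle treated cultures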; settings: S. cerevisiae cln2 rad14 strain, hits give high values; at 50.0 µM unless noted
This is part of a sample that, as a whole, favours compounds with a hit. Of some 79,000 tested, about 15% had one in any assay.
// classify(record): look up growth inhibition in ranges category 1: < -20%; category 2: ≥ -20% and < 10%; category 3: ≥ 10%

O=C(N/N=C(\c1nc2ccc(Cl)cc2[nH]c1=O)C(O)c1ccccc1Cl)c1ccncc1 (stereo unspecified): category 3
CCn1c2ccccc2c2ccccc21: category 3
CCNC(=O)c1ccc(C(C)C)cc1: category 2
C#CC(C)(O)CCC(C)C (stereo unspecified): category 3

Query string: For the record `Cc1ccc(NC(=O)c2ccc(OP(=O)(O)Nc3ccc(C)cc3)cc2)cc1` , report the class its growth inhibition corresponds to.
Result string: category 2
